System: THRa homodimer (NR concentration 90 nM)
Assay: PBM binding z-score (relative to random genomic background probes); higher = stronger binding; sequences stand for … in GC…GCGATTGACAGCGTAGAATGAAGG
Kindly return YES if reported PBM binding z-score is no lower than 0.7; return NO if it is lower.

As a guide, the following entries are already answered.
CATACAGGGTCAGCTAGGCCAGAATAGGGACGGC YES
ACTAGATGGTCAGCTGAGGTCACACACAATTCGG YES
TACCCTAGGTCATGCGGGCCAGTATAGTGTCGGC YES
CCGACTGGGGCAAGGTTTCCATAACGCACAGCCA NO
GGATCGAGGGCATTCGAGTTGATAGCATGGCGAT NO

## Input # bool: PBM binding z-score of AGTCAAAGTTCACTAGGTAACGTCAGATTCAGCT >= 0.7
## Output NO

---

System: THRa:RXRa (NR concentration 90 nM, RXRa partner concentration 90 nM)
Assay: PBM binding z-score (relative to random genomic background probes); higher = stronger binding; sequences stand for … in GC…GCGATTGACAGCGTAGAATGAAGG
assay endpoint: PBM binding z-score
Enter the number alone.

TAGCCTAGGTCATTCAGGGGCCAGTGTAGAAAGC 3.58
TAGCCTAGGGCAGATCGGGCCAGTATACGCTATA 2.16
GCAGACAGGTGAAGCGCAGGTAACTCAGGGTGGC 0.73

## Input For TCGATTAGTTGATTAGGGCAACCGAAACAGCGGA , what is its reported PBM binding z-score?
## Output 0.565

## Input How about this sequence: TAGCCTAGGTAATGGGCCAGTATACCACGCGAAC
## Output -0.354

## Input How about this sequence: TCTTATAGGTAATACAGGTGAAAGTCGGCATCTA
## Output 1.09

## Input How about this sequence: ACTCGGAGGACAAAGCTCAGAGCTACGCCAGTGA
## Output 0.233

---

// reported PBM binding z-score for each item listed
Test system: PXR:RXRa (NR concentration 270 nM, RXRa partner concentration 90 nM)
Assay: PBM binding z-score (relative to random genomic background probes); higher = stronger binding; sequences stand for … in GC…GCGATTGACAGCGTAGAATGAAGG
Enter the number alone.

Observe how each entry below is paired with its result.
CCTACTGGGCCAGAGGTCATTGATTCCAATGCTC 4.8
CCTAGTTGGTCAAGATCACACACGCTATAGGTAC 0.0789
GCATATAGGTAATACAAGGTGAAAGTACGATTGT 0.648
ATATGTAGGTTAAGGGTCCTTCAGGTTGGTTCGC 1.1
CAAATTAGGTCACAGAGGTCAAAGTCCGTGCGTA 6.74
TAGCCTAGGTCATTCAGGGGCCCGTATAGAAAGC 2.01
ACAGACAGGTGACTGAAGGTAACTCAGCTGGACG -0.321
TGAATGAGGTTATAAGATCAGGGTACGTTGCAAA 1.17

## Input For CAAACTAGGTCACGAAAGGTCAGAGTCGAATGAC , what is its reported PBM binding z-score?
## Output 6.33

## Input How about this sequence: CCTCCGAGGACAACAGGAGGTCAGAGCTGCCAGA
## Output 2.17

## Input How about this sequence: CCTAGGTGGTCAAGGTCACACACGCTATAGGTAC
## Output 4.24

## Input How about this sequence: ACTCGCAGGCCAAGTTTGGGTCACTCAAACAAAG
## Output 0.84

## Input How about this sequence: CGAACTAGGTCATTGACAGGACAGGGAATAGTAA
## Output 1.43

## Input How about this sequence: GCTCGGAGGACAAGGTCAGCGCTTTGTCCGTAGA
## Output 2.18

## Input How about this sequence: TCGAGTAGGTTAGGGGCACTCAGAATGGCGTCGA
## Output 0.155

## Input How about this sequence: ACTATGAGTTGAGACGAGGGCAACCGATAGGTTG
## Output 3.34

## Input How about this sequence: AGTCAAAGTTCACTAGGTAACGGAAGATTCAGCT
## Output 4.05

## Input How about this sequence: GCGACGGGGGCATCAGCAGGTTACCATAACTTAA
## Output 3.29
